Target: Melanin-concentrating hormone receptor 1 (Homo sapiens)
Sequence (Q99705 whole entry): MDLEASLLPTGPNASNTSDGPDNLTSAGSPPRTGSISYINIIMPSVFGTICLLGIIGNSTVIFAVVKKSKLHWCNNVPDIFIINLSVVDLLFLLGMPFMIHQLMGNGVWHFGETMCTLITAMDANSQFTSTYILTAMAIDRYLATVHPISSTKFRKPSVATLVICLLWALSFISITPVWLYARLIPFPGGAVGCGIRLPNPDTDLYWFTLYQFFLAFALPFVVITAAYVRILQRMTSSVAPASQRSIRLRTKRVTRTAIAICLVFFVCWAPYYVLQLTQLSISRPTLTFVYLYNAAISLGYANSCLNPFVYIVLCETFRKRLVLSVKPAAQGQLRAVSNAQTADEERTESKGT
observation.type: pKi
// field semantics: pKi = negative decimal log of concentration (mol/L)

Reported pKi of CCN(CC)C(=O)N1CCC2(CC1)CC2(c1ccc(-c2cccc(C#N)c2)cc1)c1nc2cc(F)c(C(F)(F)F)cc2[nH]1 (configuration not stated) : 6.66

Reported pKi of CCN(CC)C(=O)N1CCC(=C(c2ccc(-c3cccc(C#N)c3)cc2)c2nc3cc(F)c(C(F)(F)F)cc3[nH]2)CC1 : 7.66

Reported pKi of N#Cc1cccc(-c2ccc(C(=C3CCN(CC(N)=O)CC3)c3nc4cc(C(F)(F)F)c(F)cc4[nH]3)cc2)c1 : 7.81

Reported pKi of N#Cc1cccc(-c2ccc(C(=C3CCN(CCO)CC3)c3nc4cc(C(F)(F)F)c(F)cc4[nH]3)cc2)c1 : 8.14

Reported pKi of N#Cc1cccc(-c2ccc(C(=C3CCN(C(=O)C4CC4)CC3)c3nc4cc(C(F)(F)F)c(F)cc4[nH]3)cc2)c1 : 7.51

Reported pKi of Cn1cccc1C(=O)N1CCC(=C(c2ccc(-c3cccc(C#N)c3)cc2)c2nc3cc(C(F)(F)F)c(F)cc3[nH]2)CC1 : 8.00

Reported pKi of CC(=O)N1CCC(=C(c2ccc(-c3cccc(C#N)c3)cc2)c2nc3cc(F)c(C(F)(F)F)cc3[nH]2)CC1 : 7.51

Where do the numbers come from? From ChEMBL document CHEMBL1138940.
